Tested on: Fibroblast
assay.comment: Multiplex assay against human fibroblast
Assay type: toxicity, cell-based
experimental.conditions: 48 h, 1 µM, compound concentration 1 uM, replicate 2

compound: CC(C)(C)NC[C@H](O)COc1nsnc1N1CCOCC1
tested.target: Fibroblast
Population Normal (%): 84
--
compound: CNC(=O)Nc1ccc(-c2nc(N3CC4CCC(C3)O4)c3cnn(C4CCC5(CC4)OCCO5)c3n2)cc1
tested.target: Fibroblast
Population Normal (%): 87
--
compound: Cc1ccc2c(c1)c1c(n2CCc2ccc(C)nc2)CCN(C)C1 [LATREPIRDINE]
tested.target: Fibroblast
Population Normal (%): 55
--
compound: CC1=C(C(=O)Nc2cc3cn[nH]c3cc2F)C(c2ccc(C(F)(F)F)cc2)CC(=O)N1 (centres undefined)
tested.target: Fibroblast
Population Normal (%): 77
--
compound: COc1ccccc1CN[C@H]1C2CCN(CC2)[C@H]1C(c1ccccc1)c1ccccc1
tested.target: Fibroblast
Population Normal (%): 87
--
compound: CC(C)OC(=O)N1CCC(Oc2ncnc3c2cnn3-c2ccc(S(C)(=O)=O)cc2F)CC1
tested.target: Fibroblast
Population Normal (%): 86
--
compound: Cc1c[nH]c2nccc(Oc3c(F)cc(Nc4cc(Cl)nc(N)n4)cc3F)c12
tested.target: Fibroblast
Population Normal (%): 88
--
compound: Cc1ccc(C)c(Oc2ccncc2C(=O)N2CCN(C3CC3)c3ccccc32)c1
tested.target: Fibroblast
Population Normal (%): 84
--
compound: COc1ccc(-c2ccc3ncc4c(c3c2)n(-c2ccc(N3CCNCC3)c(C(F)(F)F)c2)c(=O)n4C)cn1.O=C(O)/C=C\C(=O)O
tested.target: Fibroblast
Population Normal (%): 72

---

Tested on: U2OS
assay.comment: Multiplex assay against U2OS
Type: toxicity, cell-based
experimental.conditions: human, 48 h, 10 µM, compound concentration 10 uM, replicate 1
Classify by measured Population Mitotic Cells (%): Fulfilled if it is equal to or exceeds 40%, Not fulfilled if it is smaller.

molecule: Cc1cccc(CN2CCN(C(c3ccccc3)c3ccc(Cl)cc3)CC2)c1.Cl.Cl (configuration not stated)
classification: Fulfilled
//
molecule: COc1ccc(-c2ccc3ncc4c(c3c2)n(-c2ccc(N3CCNCC3)c(C(F)(F)F)c2)c(=O)n4C)cn1.O=C(O)/C=C\C(=O)O
classification: Not fulfilled
//
molecule: CN1CCN(Cc2ccc(Nc3ncc(Cl)c(Nc4ccccc4S(=O)(=O)N(C)C)n3)cc2)CC1
classification: Not fulfilled
//
molecule: CC(C)OC(=O)N1CCC(Oc2ncnc3c2cnn3-c2ccc(S(C)(=O)=O)cc2F)CC1
classification: Fulfilled
//
molecule: Cl.O=C(O)c1cc(-c2ccc(C3CCNCC3)cc2)c2ccc(-c3ccc(C(F)(F)F)cc3)cc2c1
classification: Fulfilled
//
molecule: COc1ccccc1CN[C@H]1C2CCN(CC2)[C@H]1C(c1ccccc1)c1ccccc1
classification: Not fulfilled
//
molecule: CC(C)NC(=O)N1CC[C@H](NC2=Nc3cc(F)ccc3N(CC(F)F)c3ccc(Cl)cc32)C1
classification: Not fulfilled
//
molecule: CCCSc1nc(N[C@@H]2C[C@H]2c2ccc(F)c(F)c2)c2nnn([C@@H]3C[C@H](OCCO)[C@@H](O)[C@H]3O)c2n1
classification: Not fulfilled
//
molecule: COc1cc2ncn(-c3cc(OCc4ccccc4C(F)(F)F)c(C(N)=O)s3)c2cc1OC [GW843682X]
classification: Not fulfilled
//
molecule: COc1cc(Nc2nccc(-c3cnn4nc(OC)ccc34)n2)cc(C(F)(F)F)c1
classification: Not fulfilled
//
molecule: CNC(=O)Nc1ccc(-c2nc(N3CC4CCC(C3)O4)c3cnn(C4CCC5(CC4)OCCO5)c3n2)cc1
classification: Not fulfilled
//
molecule: CCOC(=O)Nc1cc(-c2ccc(C)c(NS(C)(=O)=O)c2)nn2c(C)nnc12
classification: Fulfilled
//
molecule: Cc1ccccc1C(c1ccccc1C)N1C2CCC1CC(O)(c1ccccc1)C2 (configuration not stated)
classification: Fulfilled
//
molecule: CC(C)Oc1ccccc1C(=O)Nc1ccccc1C(=O)Nc1cccc(S(=O)(=O)C(F)(F)F)c1
classification: Not fulfilled
//
molecule: CC(C)(C)NC[C@H](O)COc1nsnc1N1CCOCC1
classification: Fulfilled
